The values you see were collected from PubChem BioAssay (NCI).

Test system: U251 CNS
protocol: NCI-60 one-dose screen, 48 h
experimental conditions: 10 µM unless noted
About 83,000 compounds went through this panel and 20% of them were active in at least one assay; those are over-represented in the sample as a whole. Activity calls are given as the source filed them. How the source made its calls: active means growth percent below 10; inactive means the rest.
Output constraint: value belongs to active, inactive

Here are 4 molecules together with their reported answers.
molecule	category
CCCCCCCCc1ccc(OCCOCC[N+](C)(C)CC)cc1 (tested in a mixture with another compound)	inactive
COc1cc(-c2nc(/C=C3/C(=O)Nc4ccccc43)c3ccccn23)cc(OC)c1OC	inactive
C/C=C(/C)C(=O)OC1C=C(CO)C(=O)C(OC(=O)C(C)(O)C(C)Cl)C1C(C)C (stereo not drawn)	active
CC1(C)C(O)NC(Cl)=C(C#N)C1(C#N)C#N (stereo not drawn)	inactive

Query block: Given "CC(=O)OCC(=O)[C@@]1(O)[C@H](C)C[C@H]2[C@@H]3C=C(C)C4=Cc5c(cnn5-c5ccc(F)cc5)C[C@]4(C)[C@H]3[C@@H](O)C[C@@]21C" , state the outcome it received in this test.
Result block: active

Query block: Please share the test call associated with "c1cc(C2CCCCC2)ccc1OCCCCCCN1CCNCC1" .
Result block: active

Query block: Please indicate how the test categorized "COc1ccc(Cn2cc3c(c2-c2ccc(OC)cc2)CCc2cnoc2-3)cc1" .
Result block: inactive

Query block: In this assay, the call recorded for "COC(=O)c1ccc2[nH]c(O)c(C(=Nc3ccc(N(C)C(=O)CN4CCN(C)CC4)cc3)c3ccc4c(c3)OCO4)c2c1" was what?
Result block: inactive

Query block: What call does the record list for "Cc1ncc(C(=O)Nc2ccc(CN3CCN(C)CC3)c(C(F)(F)F)c2)cc1C#Cc1c(N)ncc2ccccc12" ?
Result block: active

Query block: Assay result, entry "COC(=O)CC(=O)C(=O)OC" — outcome?
Result block: inactive
